# ASSAY_PROTOCOL: Mouse PK test: plasma concentration after intravenous or oral administration
# Format: in vivo, mice (C57BL/6J)
# CONDITION_DESCRIPTION: C57BL/6J, in vivo, male mice, intravenous administration, 1 mg/kg, read-out: AUCinf
Starred links: 1 amine or outer side, 2 acyl side, 3 side chain; linkers in the order of their positions; H or OH if unused. Non-standard residues stand in square brackets, D forms with d. Residues, ends and D or L forms follow the SMILES beside them. *: point of attachment. NMedβ3hAla = C[C@H](CC(=O)[*:2])N(C)[*:1]; NMeF = CN[C@@H](Cc1ccccc1)C(=O)O; NMeI = CC[C@H](C)[C@H](NC)C(=O)O; hPhe = N[C@@H](CCc1ccccc1)C(=O)O; NMeβAla = CN(CCC(=O)[*:2])[*:1]; NMeL = CN[C@@H](CC(C)C)C(=O)O; Abu = CC[C@H](N)C(=O)O; Sar = CNCC(=O)O; tBu = CC(C)(C)*
REPORTED_PROPERTY: AUC(0-inf) (ng·h/mL)
One number for each entry, in ng·h/mL.

-- ask Entry CC[C@@H]1NC(=O)[C@H](CC(C)C)N(C)C(=O)[C@H](COC(C)(C)C)NC(=O)[C@H]([C@@H](C)CC)N(C)C(=O)[C@H](CCc2ccccc2)NC(=O)[C@H](Cc2ccccc2)N(C)C(=O)[C@H](C(C)C)NC(=O)[C@H](CC(C)C)N(C)C(=O)[C@H](CC(C)C)NC(=O)CCN(C)C(=O)C[C@@H](C)N(C)C(=O)CN(C)C(=O)[C@H](CC(C)C)N(C)C(=O)[C@@H]2CCCN2C1=O [pd065] (cyclo([Abu]P[NMeL][Sar][NMedβ3hAla][NMeβAla]L[NMeL]V[NMeF][hPhe][NMeI]S(tBu)[NMeL])) has what AUC(0-inf)?
-- reply 8700

---

# System: Caco-2 cells
# ASSAY_PROTOCOL: Membrane permeability test using Caco-2 cells with preincubation
# Assay type: in vitro ADME
# CONDITION_DESCRIPTION: Caco-2 cells, preincubation 20 to 24 hours; apical FaSSIF/HBSS 1% DMSO pH 6.0, basal HBSS 4% BSA pH 7.4; basal sample at 180 minutes
# Procedure: The permeability coefficient (Caco-2 Papp (cm/sec)) is calculated using a numerical expression 1. [Expression 1] Papp = (1)/(C1 (0) × S) × (dQ)/(dt) [formula] dQ/dt represents the permeation rate of drug (the amount of drug appearing on the Basal side per unit time), S represents the total surface area of cells, and C1(0) represents the concentration of drug added on the Apical side. […]
Starred links: 1 amine or outer side, 2 acyl side, 3 side chain; linkers in the order of their positions; H or OH if unused. Positions of bridges follow the written chain, without caps; N, C: chain ends. Non-standard residues stand in square brackets, D forms with d. Residues, ends and D or L forms follow the SMILES beside them. *: point of attachment. NMeF = CN[C@@H](Cc1ccccc1)C(=O)O; NMeGABA = CN(CCCC(=O)[*:2])[*:1]; NMeI = CC[C@H](C)[C@H](NC)C(=O)O; hPhe = N[C@@H](CCc1ccccc1)C(=O)O; NMeL = CN[C@@H](CC(C)C)C(=O)O; NMeV = CN[C@H](C(=O)O)C(C)C; NMeA = CN[C@@H](C)C(=O)O; Piperidide = C1CCN(*)CC1
REPORTED_PROPERTY: Caco2 Papp (10^-6 cm/sec)

-- ask Entry CC[C@H](C)[C@H]1C(=O)N2CCC[C@H]2C(=O)N(C)[C@@H](C(C)C)C(=O)N(C)[C@@H](Cc2ccccc2)C(=O)N(C)[C@@H](C)C(=O)N(C)[C@@H](CC(C)C)C(=O)N[C@@H]([C@@H](C)O)C(=O)N(C)[C@@H](C)C(=O)N[C@@H](CCc2ccccc2)C(=O)N(C)[C@@H](CC(C)C)C(=O)N[C@H](C(=O)N2CCCCC2)CC(=O)N(C)CCCC(=O)N(C)[C@@H](CC(C)C)C(=O)N1C [pd124] ([NMeGABA][NMeL][NMeI]P[NMeV][NMeF][NMeA][NMeL]T[NMeA][hPhe][NMeL]D-Piperidide; lactam N-13) has what Caco2 Papp (10^-6 cm/sec)?
-- reply 0.13 10^-6 cm/sec

---

# ASSAY_PROTOCOL: Metabolic stability test: liver microsomal stability assay
# Type: in vitro ADME, mouse
# CONDITION_DESCRIPTION: mouse liver microsomes 0.5 mg protein/mL, compound 1 µM, absence of NADPH
Positions of bridges follow the written chain, without caps; N, C: chain ends. Non-standard residues stand in square brackets, D forms with d. Residues, ends and D or L forms follow the SMILES beside them. *: point of attachment. NMeF = CN[C@@H](Cc1ccccc1)C(=O)O; NMeT = CN[C@H](C(=O)O)[C@@H](C)O; hPhe = N[C@@H](CCc1ccccc1)C(=O)O; NMeD = CN[C@@H](CC(=O)O)C(=O)O; NMeL = CN[C@@H](CC(C)C)C(=O)O; NMeV = CN[C@H](C(=O)O)C(C)C; NMeAbu = CC[C@H](NC)C(=O)O; NMeA = CN[C@@H](C)C(=O)O; Piperidide = C1CCN(*)CC1; NBuGly = CCCCNCC(=O)O; Sar = CNCC(=O)O; tBu = CC(C)(C)*
Assignment: determine reported Mouse Hepatic Microsome CLh,int NADPH(-) for the given compounds.
Numbers only, in µL/min/mg Protein.

>>> quantitative_result("CCCCN1CC(=O)N(C)[C@@H](Cc2ccccc2)C(=O)N[C@@H](CC(C)C)C(=O)N(C)[C@@H](C(C)C)C(=O)N(C)[C@@H](C)C(=O)N[C@@H](COC(C)(C)C)C(=O)N(C)[C@@H](CC)C(=O)N(C)[C@H](C(=O)N2CCCCC2)CC(=O)N(C)CC(=O)N(C)[C@@H](Cc2ccccc2)C(=O)N[C@@H]([C@@H](C)CC)C(=O)N(C)[C@@H](CC(C)C)C(=O)N(C)[C@@H]([C@@H](C)O)C1=O [pd168] ([Sar][NMeF]I[NMeL][NMeT][NBuGly][NMeF]L[NMeV][NMeA]S(tBu)[NMeAbu][NMeD]-Piperidide; lactam N-13)")
21.8

-- ask Entry CC(C)C[C@@H]1NC(=O)[C@H](CC(C)C)N(C)C(=O)[C@H](C(C)C)N(C)C(=O)[C@H](CCc2ccccc2)NC(=O)[C@H]([C@@H](C)O)N(C)C(=O)[C@@H](C(C)C)NC(=O)C[C@@H](C(=O)N2CCCCC2)NC(=O)[C@H](C(C)C)N(C)C(=O)[C@H](CC(C)C)NC(=O)[C@H](Cc2ccccc2)N(C)C(=O)[C@@H]2CCCN2C(=O)[C@H](CC(C)C)N(C)C(=O)CN(C)C1=O [pd107] ([dV][NMeT][hPhe][NMeV][NMeL]L[Sar][NMeL]P[NMeF]L[NMeV]D-Piperidide; lactam N-13) has what Mouse Hepatic Microsome CLh,int NADPH(-)?
-- reply 31.5

---

# ASSAY_PROTOCOL: Membrane permeability test using Caco-2 cells with preincubation
# Format: in vitro ADME
# CONDITION_DESCRIPTION: Caco-2; preincubation 20 to 24 hours; Apical FaSSIF/HBSS pH 6.0, Basal HBSS 4% BSA pH 7.4; 180 minutes; read-out: Caco2 Papp
Non-standard residues stand in square brackets, D forms with d. Residues, ends and D or L forms follow the SMILES beside them. *: point of attachment. NMeF = CN[C@@H](Cc1ccccc1)C(=O)O; NMeT = CN[C@H](C(=O)O)[C@@H](C)O; NMeL = CN[C@@H](CC(C)C)C(=O)O; NMeV = CN[C@H](C(=O)O)C(C)C; d(β3hA) = C[C@@H](N)CC(=O)O; NMeAbu = CC[C@H](NC)C(=O)O; NMeA = CN[C@@H](C)C(=O)O; dNMeA = CN[C@H](C)C(=O)O; Abu = CC[C@H](N)C(=O)O; tBu = CC(C)(C)*
REPORTED_PROPERTY: Papp A→B (×10⁻⁶ cm/s)
One number for each entry, in ×10⁻⁶ cm/s.

Would you mind listing Papp A→B for each of the following molecules?
1. CC[C@@H]1NC(=O)[C@H](CC(C)C)N(C)C(=O)[C@H]([C@@H](C)CC)NC(=O)[C@H](CC(C)C)N(C)C(=O)C[C@@H](C)NC(=O)[C@H](C(C)C)N(C)C(=O)[C@H](CC(C)C)NC(=O)[C@H](CC)N(C)C(=O)[C@H](Cc2ccccc2)N(C)C(=O)[C@@H]2CCCN2C(=O)[C@H](CC(C)C)NC(=O)[C@H]([C@@H](C)O)N(C)C(=O)[C@H](CC(C)C)N(C)C1=O [pd135] (cyclo([Abu][NMeL][NMeT]LP[NMeF][NMeAbu]L[NMeV][d(β3hA)][NMeL]I[NMeL]))
2. CC[C@H](C)[C@@H]1NC(=O)[C@@H]2CCCN2C(=O)[C@H](C(C)C)N(C)C(=O)[C@H](CC(C)C)NC(=O)[C@@H](C)N(C)C(=O)C[C@@H](C)NC(=O)[C@H](C(C)C)N(C)C(=O)[C@H](Cc2ccccc2)N(C)C(=O)[C@H](COC(C)(C)C)NC(=O)[C@H](CC(C)C)N(C)C(=O)[C@H](C)N(C)C(=O)[C@H](CC(C)C)N(C)C(=O)[C@H]([C@@H](C)O)NC(=O)[C@H](Cc2ccccc2)N(C)C1=O [pd054] (cyclo(I[NMeF]T[NMeL][NMeA][NMeL]S(tBu)[NMeF][NMeV][d(β3hA)][dNMeA]L[NMeV]P))

-- reply
1. 1.95
2. 0.49

Taken from patent EP4768499A1.
